Tested on: L6-myotubes
Test: Glucose uptake in differentiated L6-myotubes (Biological Example 2)
Format: cell-based
Conditions: glucose uptake; compound at 10 μM relative to isoproterenol at 10 μM; read-out: Biological example 2 (GU)
Description: Compounds described in publications referenced and incorporated herein were screened in accordance with the procedures outlined in Biological example 2 and Biological example 3. […]
// reported Emax at 10 µM per item
ENDPOINT NAME: Emax at 10 µM

INSERT INTO results (molecule, tested_system, result) VALUES
  ('CC(C)(C)NC[C@H](O)c1ncccc1Cl', 'L6-myotubes', '25 to 50%'),
  ('CCC[C@H](C)NC[C@H](O)c1cccc(F)c1', 'L6-myotubes', '> 75%'),
  ('CCCCNCC(O)c1ccc(F)c(NC(C)=O)c1F (stereo not shown)', 'L6-myotubes', '25 to 50%'),
  ('CCC[C@H]1CCC[C@H]([C@@H](O)c2cccc(Cl)c2)N1', 'L6-myotubes', '25 to 50%'),
  ('CC1(C)CC[C@H]([C@@H](O)c2ccc(F)cc2)N1', 'L6-myotubes', '< 25%'),
  ('CCC[C@@H](C)NC[C@H](O)c1ccc(F)cc1', 'L6-myotubes', '50 to 75%'),
  ('CC1(C)CC[C@H]([C@@H](O)c2cccc(F)c2)N1', 'L6-myotubes', '25 to 50%'),
  ('CC12CC(C1)[C@H]([C@@H](O)c1cccc(F)c1)N2', 'L6-myotubes', '25 to 50%'),
  ('CC1(C)CCC[C@H]([C@@H](O)c2ccccc2Cl)N1', 'L6-myotubes', '> 75%'),
  ('CCC[C@@H]1CC[C@H]([C@H](O)c2cccc(F)c2)N1', 'L6-myotubes', '> 75%');

* * *

// reported Emax at 10 µM per item
tested on: L6-myotubes; assay: Measurement of intracellular cAMP levels in differentiated L6-myotubes (Biological Example 3); assay type: cell-based; details: 0.25 h, intracellular cAMP in differentiated L6-myotubes; compound at 10 μM, activity relative to isoproterenol at 10 μM
ENDPOINT NAME: Emax at 10 µM

INSERT INTO measurements (molecule, tested_system, endpoint_name, result) VALUES
  ('O[C@@H](CNCC[C@H]1CC[C@H](OCc2ccccc2)CC1)c1cncc(F)c1', 'L6-myotubes', 'Emax at 10 µM', '< 25%'),
  ('CC(C)(C[C@H]1CC[C@H](NS(C)(=O)=O)CC1)NC[C@H](O)c1cccc(C(F)(F)F)n1', 'L6-myotubes', 'Emax at 10 µM', '< 25%'),
  ('O[C@@H](CNCCC[C@H]1CC[C@@H](OCc2ccccc2)CC1)c1cncc(F)c1', 'L6-myotubes', 'Emax at 10 µM', '< 25%'),
  ('CC(C)(NC[C@H](O)c1cccc(F)c1)[C@H]1CC[C@@H](OCc2ccccc2)CC1', 'L6-myotubes', 'Emax at 10 µM', '< 25%'),
  ('CO[C@H]1CC[C@H](CCCNC[C@H](O)c2cccc(F)c2)CC1', 'L6-myotubes', 'Emax at 10 µM', '< 25%'),
  ('CC1(C)C[C@@H]([C@H](O)c2cccc(Cl)c2)N1', 'L6-myotubes', 'Emax at 10 µM', '< 25%'),
  ('CO[C@H]1CC[C@@H](CCNC[C@H](O)c2cccc(F)c2)CC1', 'L6-myotubes', 'Emax at 10 µM', '< 25%'),
  ('O[C@H](c1cncc(F)c1)C12CCC(CCc3ccc(OC(F)(F)F)cc3)(CC1)N2', 'L6-myotubes', 'Emax at 10 µM', '< 25%');

* * *

test system: L6-myotubes; assay: Measurement of intracellular cAMP levels in differentiated L6-myotubes (Biological Example 3); format: cell-based; conditions: 0.25 h, intracellular cAMP in differentiated L6-myotubes; compound at 10 μM, activity relative to isoproterenol at 10 μM
// reported Emax at 10 µM per item
ENDPOINT NAME: Emax at 10 µM

INSERT INTO assay_data (molecule, tested_system, result) VALUES
  ('CC1(C)CC[C@H]([C@@H](O)c2cccc(N)c2F)N1', 'L6-myotubes', '< 25%'),
  ('CC(C)(C)NC[C@H](O)c1cccc(C#N)n1', 'L6-myotubes', '25 to 50%'),
  ('CC(C)(NC[C@H](O)c1cncc(F)c1)[C@H]1CC[C@H](N)CC1', 'L6-myotubes', '< 25%'),
  ('CO[C@H]1CC[C@H](C[C@@H]2CC[C@H]([C@H](O)c3cccc(F)c3)N2)CC1', 'L6-myotubes', '< 25%'),
  ('CC(C)(C[C@H]1CC[C@H](NS(=O)(=O)C2CC2)CC1)NC[C@H](O)c1cccc(F)c1', 'L6-myotubes', '< 25%'),
  ('CC12CC(C1)[C@@H]([C@H](O)c1cccc(N)c1F)N2', 'L6-myotubes', '< 25%'),
  ('O[C@@H](c1cccc(F)c1)C12CCC(CCCc3ccccc3)(CC1)N2', 'L6-myotubes', '< 25%'),
  ('O[C@@H](c1cncc(F)c1)[C@H]1CC[C@H](Cc2ccc(Cl)cc2)N1', 'L6-myotubes', '< 25%'),
  ('CS(=O)(=O)N[C@H]1CC[C@H](C[C@@H]2CC[C@H]([C@@H](O)c3cccc(F)c3)N2)CC1', 'L6-myotubes', '< 25%'),
  ('CC1(C)C[C@H]([C@H](O)c2cncc(F)c2)N1', 'L6-myotubes', '< 25%'),
  ('CO[C@H]1CC[C@H](C[C@@H]2CC[C@H]([C@H](O)c3cncc(F)c3)N2)CC1', 'L6-myotubes', '< 25%'),
  ('CC(C)(C[C@H]1CC[C@@H](N)CC1)NC[C@H](O)c1cccc(C#N)n1', 'L6-myotubes', '< 25%'),
  ('O[C@@H](CNCC[C@H]1CC[C@@H](O)CC1)c1cccc(F)c1', 'L6-myotubes', '< 25%'),
  ('CN(C)S(=O)(=O)[C@H]1CC[C@H](CC(C)(C)NC[C@H](O)c2cncc(F)c2)CC1', 'L6-myotubes', '25 to 50%'),
  ('CO[C@H]1CC[C@H](C[C@]2(C)CC[C@H]([C@H](O)c3cccc(F)c3)N2)CC1', 'L6-myotubes', '50 to 75%'),
  ('CC(C)(CC[C@H]1CC[C@@H](O)CC1)NC[C@H](O)c1ccccc1F', 'L6-myotubes', '25 to 50%'),
  ('CC1(C)C[C@H]([C@@H](O)c2cncc(F)c2)N1', 'L6-myotubes', '< 25%');

* * *

tested on: L6-myotubes; assay: Glucose uptake in differentiated L6-myotubes (Biological Example 2); type: cell-based; details: glucose uptake in differentiated L6-myotubes; compound at 10 μM, activity relative to isoproterenol at 10 μM; read-out: Biological example 2 (GU)
// reported Emax at 10 µM per item
ENDPOINT NAME: Emax at 10 µM

INSERT INTO assay_data (molecule, tested_system, result) VALUES
  ('CC(=O)N[C@H]1CC[C@H](CNC[C@H](O)c2cccc(F)c2)CC1', 'L6-myotubes', '50 to 75%'),
  ('CC(C)(C[C@H]1CC[C@H](N)CC1)NC[C@H](O)c1cccc(F)c1', 'L6-myotubes', '> 75%'),
  ('CC1(C)C[C@H]([C@H](O)c2cncc(F)c2)N1', 'L6-myotubes', '> 75%'),
  ('CN(C)S(=O)(=O)[C@H]1CC[C@@H](CC(C)(C)NC[C@H](O)c2cccc(F)c2)CC1', 'L6-myotubes', '> 75%'),
  ('O[C@H](c1cncc(F)c1)[C@H]1CC[C@@H](Cc2ccc(Cl)cc2)N1', 'L6-myotubes', '> 75%'),
  ('CO[C@H]1CC[C@H](C[C@@H]2CC[C@H]([C@H](O)c3cccc(F)c3)N2)CC1', 'L6-myotubes', '> 75%'),
  ('CC12CC(C1)[C@@H]([C@@H](O)c1cccc(Cl)c1)N2', 'L6-myotubes', '25 to 50%');

* * *

// reported Emax at 10 µM per item
test system: L6-myotubes; assay: Measurement of intracellular cAMP levels in differentiated L6-myotubes (Biological Example 3); format: cell-based; settings: 0.25 h, intracellular cAMP; compound at 10 μM relative to isoproterenol at 10 μM
ENDPOINT NAME: Emax at 10 µM

INSERT INTO results (molecule, tested_system, result) VALUES
  ('CCC[C@H]1CCC[C@H]([C@H](O)c2cc(F)cc(F)c2)N1 [Compound 68]', 'L6-myotubes', '< 25%'),
  ('CCCCNCC(O)c1ccc(F)c(NC(C)=O)c1F (centres unmarked) [Compound 42]', 'L6-myotubes', '< 25%'),
  ('CC(C)(C)NC[C@H](O)c1ccccc1F [Compound 78]', 'L6-myotubes', '25 to 50%'),
  ('C[C@H]1CC[C@@H]([C@H](O)c2ccccc2)N1 (racemic) [Compound 38]', 'L6-myotubes', '< 25%'),
  ('CCC[C@H]1CCC[C@H]([C@H](O)c2cncc(F)c2)N1 [Compound 140]', 'L6-myotubes', '< 25%'),
  ('CCC[C@H]1CCC[C@@H]([C@H](O)c2cccc(Cl)c2)N1 [Compound 123]', 'L6-myotubes', '< 25%'),
  ('CC12CCC([C@@H](O)c3cccc(Cl)c3)(CC1)N2 [Compound 196]', 'L6-myotubes', '< 25%'),
  ('Oc1ccc(C(O)CNCCCC2CCCCC2)cc1 (centres unmarked) [Compound 21]', 'L6-myotubes', '< 25%'),
  ('CCCC(C)NCC(O)c1ccc(O)cc1 (centres unmarked) [Compound 8]', 'L6-myotubes', '25 to 50%'),
  ('CCCCNCC(O)c1cccnc1 (centres unmarked) [Compound 49, 2-(butylamino)-1-(3-pyridyl)-1-ethanol]', 'L6-myotubes', '< 25%'),
  ('Oc1ccc(C(O)CNCCCC2CC2)cc1 (centres unmarked) [Compound 30]', 'L6-myotubes', '< 25%'),
  ('CCC[C@H]1CCC[C@H]([C@@H](O)c2cccc(F)c2)N1 [Compound 70]', 'L6-myotubes', '< 25%'),
  ('CCCCNCC(O)c1ccc(=O)[nH]c1 (centres unmarked) [Compound 63]', 'L6-myotubes', '< 25%'),
  ('CCC[C@H]1CC[C@@H]([C@@H](O)c2cccc(F)c2)N1 [Compound 131]', 'L6-myotubes', '< 25%'),
  ('CC12CCC([C@H](O)c3cncc(F)c3)(CC1)N2 [Compound 185]', 'L6-myotubes', '< 25%'),
  ('CC1(C)CC[C@H]([C@@H](O)c2ccccc2Cl)N1 [Compound 151]', 'L6-myotubes', '< 25%'),
  ('CCCCNC[C@H](O)c1cccc(F)c1F [Compound 77]', 'L6-myotubes', '< 25%'),
  ('CC(C)(C)NCC(O)c1ccc(O)cc1 (centres unmarked) [Compound 4]', 'L6-myotubes', '25 to 50%'),
  ('CC1(C)CCC[C@@H]([C@H](O)c2ccccc2F)N1 [Compound 193]', 'L6-myotubes', '25 to 50%'),
  ('CCC[C@H]1CCC[C@H]([C@@H](O)c2ccc(F)cc2)N1 [Compound 105]', 'L6-myotubes', '< 25%'),
  ('CCC[C@@H](C)NC[C@H](O)c1cccc(F)c1 [Compound 50]', 'L6-myotubes', '< 25%'),
  ('CC1(C)CC[C@H]([C@H](O)c2cncc(F)c2)N1 [Compound 157]', 'L6-myotubes', '< 25%'),
  ('C[C@H]1CC[C@@H]([C@@H](O)c2cccc(O)c2)N1 (racemic) [Compound 41]', 'L6-myotubes', '< 25%'),
  ('CCCC(C)NCC(O)c1cc(Cl)c(N)c(C(F)(F)F)c1 (centres unmarked) [Compound 33]', 'L6-myotubes', '> 75%'),
  ('CCC[C@@H]1CCC[C@H]([C@H](O)c2ccc(F)cc2)N1 [Compound 94]', 'L6-myotubes', '< 25%'),
  ('CCC[C@@H]1CCC[C@H]([C@H](O)c2cccc(F)c2)N1 [Compound 59]', 'L6-myotubes', '< 25%'),
  ('CC12CC(C1)[C@@H]([C@@H](O)c1cccc(F)c1)N2 [Compound 189]', 'L6-myotubes', '< 25%'),
  ('CC1(C)CC[C@H]([C@@H](O)c2cncc(O)c2)N1 [Compound 166]', 'L6-myotubes', '< 25%'),
  ('CC(C)(C)NC[C@H](O)c1ccc(F)c(O)c1 [Compound 84]', 'L6-myotubes', '50 to 75%'),
  ('CCCC(C)NCC(O)c1cc(Cl)c(N)c(Cl)c1 (centres unmarked) [Compound 22]', 'L6-myotubes', '50 to 75%'),
  ('CCCCNC[C@H](O)c1csc(C(F)(F)F)n1 [Compound 72]', 'L6-myotubes', '< 25%'),
  ('CC(C)(C)NCC(O)c1ccncc1O (centres unmarked) [Compound 134]', 'L6-myotubes', '< 25%'),
  ('CC12CCC([C@@H](O)c3cccc(F)c3)(CC1)N2 [Compound 178]', 'L6-myotubes', '< 25%'),
  ('CC12CCC([C@H](O)c3ccccc3Cl)(CC1)N2 [Compound 195]', 'L6-myotubes', '< 25%'),
  ('CCCCNC[C@H](O)c1cccc(N)c1F [Compound 90]', 'L6-myotubes', '< 25%');
